B1: HDAC6 (parent)
chain: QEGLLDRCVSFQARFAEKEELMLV

Variants of: B1
Assay remarks: protein stability index of a GFP-peptide fusion (GPS, HEK-293T) (PSI 1-6); higher = more stable;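 note: lentivirally expressed fusions sorted by FACS into six bins by GFP to DsRed ratio, PSI derived from sequencing read proportions per bin multiplied by bin number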
Run conditions: c terminus: a fixed tail appended
Measurement type: protein stability index

mutant_label=F15W measurement_type="protein stability index" val=2.36
mutant_label=E19K measurement_type="protein stability index" val=1.9
mutant_label=C8W measurement_type="protein stability index" val=1.62
mutant_label=A13Y measurement_type="protein stability index" val=1.76
mutant_label=E20I measurement_type="protein stability index" val=1.18
mutant_label=A13R measurement_type="protein stability index" val=1.93
mutant_label=E19A measurement_type="protein stability index" val=1.76
mutant_label=K18I measurement_type="protein stability index" val=2.6
mutant_label=L23Q measurement_type="protein stability index" val=2.32
mutant_label=A16C measurement_type="protein stability index" val=1.48
mutant_label=F15I measurement_type="protein stability index" val=1.56
